- method: Body and organ weights of cynomolgus monkeys (Example 45)
- Format: in vivo
- conditions-used: day 29; escalating dose regimen
- Protocol: Groups, each consisting of two male and three female monkeys, were injected subcutaneously with ISIS 416838, ISIS 416850, ISIS 416858, ISIS 416864, or ISIS 417002 in escalating doses. […] Body weights were measured weekly. […]
Provide the reported body weights of each item.
Field: numeric (g). Do not append units.

For the substance ISIS 417002: MOE gapmer, nucleobases 1275 to 1318 of SEQ ID NO: 1 (Table 8) (antisense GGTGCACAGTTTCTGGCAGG; MOE gapmer, wing and gap sizes not given here) , give its reported body weights.
2622

For the substance ISIS 416858: MOE gapmer, nucleobases 1275 to 1318 of SEQ ID NO: 1 (Table 8) (antisense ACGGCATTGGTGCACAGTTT; MOE gapmer, wing and gap sizes not given here) , give its reported body weights.
2763

Tell me its body weights given ISIS 416864: MOE gapmer, nucleobases 1275 to 1318 of SEQ ID NO: 1 (Table 8) (antisense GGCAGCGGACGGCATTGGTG; MOE gapmer, wing and gap sizes not given here) as the entry.
2863

Identify measured body weights associated with ISIS 416850: MOE gapmer, nucleobases 1275 to 1318 of SEQ ID NO: 1 (Table 8) (antisense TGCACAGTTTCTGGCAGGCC; MOE gapmer, wing and gap sizes not given here)
2515

Provide only the value of recorded body weights for ISIS 416838: MOE gapmer, nucleobases 1018 to 1042 of SEQ ID NO: 1 (Table 6) (antisense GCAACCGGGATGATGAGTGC; MOE gapmer, wing and gap sizes not given here)
2689
